- assayTarget: Estrogen receptor beta (Homo sapiens, UniProt Q92731)
- Sequence (Q92731 whole entry): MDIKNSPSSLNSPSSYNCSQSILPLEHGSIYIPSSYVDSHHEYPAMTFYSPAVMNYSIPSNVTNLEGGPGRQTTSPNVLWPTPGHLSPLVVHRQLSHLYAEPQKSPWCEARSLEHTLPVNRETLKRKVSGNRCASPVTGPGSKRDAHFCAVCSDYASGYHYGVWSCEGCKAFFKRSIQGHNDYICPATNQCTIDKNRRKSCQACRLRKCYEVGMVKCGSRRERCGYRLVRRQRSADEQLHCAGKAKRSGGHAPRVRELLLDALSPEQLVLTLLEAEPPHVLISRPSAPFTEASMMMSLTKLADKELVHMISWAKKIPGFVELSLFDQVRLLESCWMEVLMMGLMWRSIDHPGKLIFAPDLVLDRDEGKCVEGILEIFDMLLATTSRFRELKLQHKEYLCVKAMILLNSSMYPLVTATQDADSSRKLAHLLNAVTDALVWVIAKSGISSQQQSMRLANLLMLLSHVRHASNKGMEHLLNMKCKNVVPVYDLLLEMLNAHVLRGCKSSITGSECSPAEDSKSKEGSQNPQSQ
- measurementProtocol: Antagonist activity at human estrogen receptor beta assessed as inhibition of agonist-induced protein interaction with steroid receptor co-activator peptide by cell-based reporter gene assay
Documented IC50 across a set of compounds
Record the value in nM, omitting the unit from your answer.

                            structuresmiles  scaleunit  observed
0  Cc1nocc1-c1ccc2[nH]c([C@@]3(Cc4ccccc4)OC(=O)N([C@H](C)c4ccc(F)cc4)C3=O)nc2c1         nM      3000
1  C[C@H](c1ccc(F)cc1)N1C(=O)O[C@](Cc2ccccc2)(c2nc3cc(-c4cc[nH]n4)ccc3[nH]2)C1=O         nM      2600

Answer with reported IC50 of "C[C@H](c1ccc(F)cc1)N1C(=O)O[C@](Cc2ccccc2)(c2nc3cc(C(F)(F)F)ccc3[nH]2)C1=O"
2700

Answer with reported IC50 of "C[C@H](c1ccc(F)cc1)N1C(=O)O[C@](Cc2ccccc2)(c2nc3c(NS(C)(=O)=O)cccc3[nH]2)C1=O"
7300

====

Documented pIC50 across a set of compounds
- assayTarget: UniProt:Q92731
- measurementProtocol: Antagonist activity at human estrogen receptor beta assessed as inhibition of agonist-induced protein interaction with steroid receptor co-activator peptide by cell-based reporter gene assay
Please keep in mind that pIC50 is minus log10 of the molar concentration; only the number is needed.

Would you please look over these solved cases?
>>> print(df.to_string())
                            structuresmiles  observed
0  C[C@H](c1ccc(F)cc1)N1C(=O)O[C@](Cc2ccccc2)(c2nc3cc(N4CCOCC4)ccc3[nH]2)C1=O      5.28
1  C[C@H](c1ccc(F)cc1)N1C(=O)O[C@](Cc2ccccc2)(c2nc3cc(-c4cccnc4)ccc3[nH]2)C1=O      5.57
2  C[C@H](c1ccc(F)cc1)N1C(=O)O[C@](Cc2ccccc2)(c2nc3cc(Cl)ccc3[nH]2)C1=O      5.62

Next:
Answer with reported pIC50 of "C[C@H](c1ccc(F)cc1)N1C(=O)O[C@](Cc2ccccc2)(c2nc3cc(NS(C)(=O)=O)ccc3[nH]2)C1=O"
4.92

====

- measurementProtocol: Fraction unbound in 10% human plasma
- Type: ADME, cell-free
- testContext: 10% plasma
Documented fraction unbound across a set of compounds
Answer using only a numeral; do not append any unit.

>>> print(df.to_string())
                            structuresmiles  propertymeasured  observed
0  C[C@H](c1ccc(F)cc1)N1C(=O)O[C@](Cc2ccccc2)(c2nc3cc(NS(C)(=O)=O)ccc3[nH]2)C1=O  fraction unbound     0.034
1  C[C@H](c1ccc(F)cc1)N1C(=O)O[C@](Cc2ccccc2)(c2nc3c(C(F)(F)F)cccc3[nH]2)C1=O  fraction unbound     0.002

Answer with reported fraction unbound of "C[C@H](c1ccc(F)cc1)N1C(=O)O[C@](Cc2ccccc2)(c2nc3cc(C(F)(F)F)ccc3[nH]2)C1=O"
0.002

Answer with reported fraction unbound of "C[C@H](c1ccc(F)cc1)N1C(=O)O[C@](Cc2ccccc2)(c2nc3c(NS(C)(=O)=O)cccc3[nH]2)C1=O"
0.058

Answer with reported fraction unbound of "C[C@H](c1ccc(F)cc1)N1C(=O)O[C@](Cc2ccccc2)(c2nc3cc(-c4cc[nH]n4)ccc3[nH]2)C1=O"
0.04

Answer with reported fraction unbound of "C[C@H](c1ccc(F)cc1)N1C(=O)O[C@](Cc2ccccc2)(c2nc3cc(N4CCOCC4)ccc3[nH]2)C1=O"
0.093

Answer with reported fraction unbound of "C[C@H](c1ccc(F)cc1)N1C(=O)O[C@](Cc2ccccc2)(c2nc3cc(-c4cccnc4)ccc3[nH]2)C1=O"
0.002

Answer with reported fraction unbound of "C[C@H](c1ccc(F)cc1)N1C(=O)O[C@](Cc2ccccc2)(c2nc3cc(Cl)ccc3[nH]2)C1=O"
0.002

====

Documented remaining at 0.5 h, 1 µM across a set of compounds
- measurementProtocol: Metabolic stability in human liver microsomes assessed as compound remaining at 1 uM after 0.5 hrs
- Assay type: ADME
- testContext: read-out: Stability
Record the value in %, omitting the unit from your answer.

Would you please look over these solved cases?
In [3]: df
Out[3]:
                            structuresmiles  observed
0  C[C@H](c1ccc(F)cc1)N1C(=O)O[C@](Cc2ccccc2)(c2nc3cc(-c4cnoc4)ccc3[nH]2)C1=O        60
1  C[C@H](c1ccc(F)cc1)N1C(=O)O[C@](Cc2ccccc2)(c2nc3cc(-c4cn[nH]c4)ccc3[nH]2)C1=O        97

Next:
Answer with reported remaining at 0.5 h, 1 µM of "Cc1nocc1-c1ccc2[nH]c([C@@]3(Cc4ccccc4)OC(=O)N([C@H](C)c4ccc(F)cc4)C3=O)nc2c1"
27

====

- assayTarget: Mineralocorticoid receptor (Homo sapiens, UniProt P08235)
- Sequence (P08235 whole entry): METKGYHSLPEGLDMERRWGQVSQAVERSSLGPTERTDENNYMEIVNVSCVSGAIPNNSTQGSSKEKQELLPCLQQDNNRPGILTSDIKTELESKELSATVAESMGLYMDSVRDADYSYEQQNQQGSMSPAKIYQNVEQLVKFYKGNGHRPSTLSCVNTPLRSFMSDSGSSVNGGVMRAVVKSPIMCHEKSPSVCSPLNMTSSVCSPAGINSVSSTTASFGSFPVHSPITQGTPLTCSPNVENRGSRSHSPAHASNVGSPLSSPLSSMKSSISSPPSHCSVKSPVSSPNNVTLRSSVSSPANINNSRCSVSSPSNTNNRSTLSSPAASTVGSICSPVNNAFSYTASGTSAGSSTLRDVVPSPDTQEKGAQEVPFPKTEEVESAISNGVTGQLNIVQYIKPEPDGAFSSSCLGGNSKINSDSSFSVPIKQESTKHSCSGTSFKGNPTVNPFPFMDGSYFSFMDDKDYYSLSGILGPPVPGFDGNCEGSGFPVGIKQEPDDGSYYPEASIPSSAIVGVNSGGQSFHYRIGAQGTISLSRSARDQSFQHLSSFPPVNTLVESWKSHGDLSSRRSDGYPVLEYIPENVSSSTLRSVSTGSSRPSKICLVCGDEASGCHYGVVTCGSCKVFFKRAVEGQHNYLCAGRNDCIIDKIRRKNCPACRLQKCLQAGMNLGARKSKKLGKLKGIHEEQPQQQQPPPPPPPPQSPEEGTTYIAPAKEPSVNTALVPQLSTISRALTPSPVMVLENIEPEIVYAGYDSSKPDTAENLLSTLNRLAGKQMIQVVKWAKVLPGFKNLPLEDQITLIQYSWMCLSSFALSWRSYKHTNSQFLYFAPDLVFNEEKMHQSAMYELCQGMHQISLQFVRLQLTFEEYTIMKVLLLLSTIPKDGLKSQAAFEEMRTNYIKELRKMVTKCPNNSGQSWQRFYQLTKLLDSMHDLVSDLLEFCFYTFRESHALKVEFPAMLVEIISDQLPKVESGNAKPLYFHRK
- measurementProtocol: Antagonist activity at human mineralocorticoid receptor overexpressed in CHOK1 cells assessed as inhibition of aldosterone-induced protein interaction with coactivator peptide after 6 hrs by luminescence assay
Documented pIC50 across a set of compounds
Please keep in mind that pIC50 is minus log10 of the molar concentration; only the number is needed.

Would you please look over these solved cases?
In [3]: df
Out[3]:
                            structuresmiles  propertymeasured  observed
0  C[C@H](c1ccc(F)cc1)N1C(=O)O[C@](Cc2ccccc2)(c2nc3cc(F)ccc3[nH]2)C1=O             pIC50      6.64
1  C[C@H](c1ccc(F)cc1)N1C(=O)O[C@](Cc2ccccc2)(c2nc3cc(-c4cccnc4Cl)ccc3[nH]2)C1=O             pIC50      7.19
2  C[C@H](c1ccc(F)cc1)N1C(=O)O[C@](Cc2ccccc2)(c2nc3cc(C#N)ccc3[nH]2)C1=O             pIC50      6.38

Answer with reported pIC50 of "CC(=O)Nc1ccc2[nH]c([C@@]3(Cc4ccccc4)OC(=O)N([C@H](C)c4ccc(F)cc4)C3=O)nc2c1"
5.92

Answer with reported pIC50 of "C[C@H](c1ccc(F)cc1)N1C(=O)O[C@](Cc2ccccc2)(c2nc3c(-c4cncnc4)cccc3[nH]2)C1=O"
6.43

Answer with reported pIC50 of "C[C@H](c1ccc(F)cc1)N1C(=O)O[C@](Cc2ccccc2)(c2nc3ccccc3[nH]2)C1=O"
6.72

====

- assayTarget: UniProtKB P06401
- Sequence (P06401 whole entry): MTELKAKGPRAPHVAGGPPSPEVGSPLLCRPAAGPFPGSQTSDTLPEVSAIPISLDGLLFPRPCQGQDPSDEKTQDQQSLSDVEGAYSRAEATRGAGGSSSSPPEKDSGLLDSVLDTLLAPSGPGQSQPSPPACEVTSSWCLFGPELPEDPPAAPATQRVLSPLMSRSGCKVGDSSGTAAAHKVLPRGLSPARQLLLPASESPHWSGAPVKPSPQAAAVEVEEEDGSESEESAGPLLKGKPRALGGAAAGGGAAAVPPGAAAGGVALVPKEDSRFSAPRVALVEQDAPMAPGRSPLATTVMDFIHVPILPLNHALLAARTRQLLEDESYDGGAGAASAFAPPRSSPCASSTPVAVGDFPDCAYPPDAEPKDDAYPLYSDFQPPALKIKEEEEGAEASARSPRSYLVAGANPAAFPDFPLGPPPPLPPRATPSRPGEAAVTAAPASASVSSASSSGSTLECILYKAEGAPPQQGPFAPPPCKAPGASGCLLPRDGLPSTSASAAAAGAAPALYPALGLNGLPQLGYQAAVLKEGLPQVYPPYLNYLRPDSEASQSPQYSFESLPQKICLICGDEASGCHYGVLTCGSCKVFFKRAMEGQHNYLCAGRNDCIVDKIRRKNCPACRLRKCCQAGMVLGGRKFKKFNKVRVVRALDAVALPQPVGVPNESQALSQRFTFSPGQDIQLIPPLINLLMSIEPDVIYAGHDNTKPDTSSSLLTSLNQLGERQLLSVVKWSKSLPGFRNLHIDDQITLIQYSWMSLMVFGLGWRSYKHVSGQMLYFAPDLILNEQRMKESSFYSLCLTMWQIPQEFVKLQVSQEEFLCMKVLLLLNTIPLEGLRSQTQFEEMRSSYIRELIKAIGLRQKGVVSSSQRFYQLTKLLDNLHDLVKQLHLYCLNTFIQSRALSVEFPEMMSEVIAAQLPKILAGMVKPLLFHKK
- measurementProtocol: Agonist activity at human progesterone receptor beta by cell-based assay
Calls of active or inactive are those of the source. The rule behind the calls is not given here.
propertyMeasured: Activity

Would you please look over these solved cases?
>>> print(df.to_string())
                            structuresmiles       assaytarget  propertymeasured  observed
0  C[C@H](c1ccc(F)cc1)N1C(=O)O[C@](Cc2ccccc2)(c2nc3c(-c4cncnc4)cccc3[nH]2)C1=O  UniProtKB P06401          Activity  inactive
1  Cc1nocc1-c1ccc2[nH]c([C@@]3(Cc4ccccc4)OC(=O)N([C@H](C)c4ccc(F)cc4)C3=O)nc2c1  UniProtKB P06401          Activity  inactive
2  C[C@H](c1ccc(F)cc1)N1C(=O)O[C@](Cc2ccccc2)(c2nc3cc(NS(C)(=O)=O)ccc3[nH]2)C1=O  UniProtKB P06401          Activity  inactive
3  C[C@H](c1ccc(F)cc1)N1C(=O)O[C@](Cc2ccccc2)(c2nc3cc(-n4cnnn4)ccc3[nH]2)C1=O  UniProtKB P06401          Activity  inactive
4  C[C@H](c1ccc(F)cc1)N1C(=O)O[C@](Cc2ccccc2)(c2nc3c(-c4cnoc4)cccc3[nH]2)C1=O  UniProtKB P06401          Activity  inactive
5  C[C@H](c1ccc(F)cc1)N1C(=O)O[C@](Cc2ccccc2)(c2nc3cc(-c4ccccn4)ccc3[nH]2)C1=O  UniProtKB P06401          Activity  inactive
6  CC(=O)S[C@@H]1CC2=CC(=O)CC[C@]2(C)[C@H]2CC[C@@]3(C)[C@@H](CC[C@@]34CCC(=O)O4)[C@H]12  UniProtKB P06401          Activity  inactive
7  C[C@H](c1ccc(F)cc1)N1C(=O)O[C@](Cc2ccccc2)(c2nc3cc(-c4cnoc4)ccc3[nH]2)C1=O  UniProtKB P06401          Activity  inactive
8  C[C@H](c1ccc(F)cc1)N1C(=O)O[C@](Cc2ccccc2)(c2nc3c(NS(C)(=O)=O)cccc3[nH]2)C1=O  UniProtKB P06401          Activity  inactive
9  C[C@H](c1ccc(F)cc1)N1C(=O)O[C@](Cc2ccccc2)(c2nc3c(Cl)cccc3[nH]2)C1=O  UniProtKB P06401          Activity  inactive

Answer with reported Activity of "CC(=O)Nc1ccc2[nH]c([C@@]3(Cc4ccccc4)OC(=O)N([C@H](C)c4ccc(F)cc4)C3=O)nc2c1"
inactive

Answer with reported Activity of "C[C@H](c1ccc(F)cc1)N1C(=O)O[C@](Cc2ccccc2)(c2nc3cc(-c4cccnc4)ccc3[nH]2)C1=O"
inactive

Answer with reported Activity of "C[C@H](c1ccc(F)cc1)N1C(=O)O[C@](Cc2ccccc2)(c2nc3c(C(F)(F)F)cccc3[nH]2)C1=O"
inactive

Answer with reported Activity of "C[C@H](c1ccc(F)cc1)N1C(=O)O[C@](Cc2ccccc2)(c2nc3c(F)cccc3[nH]2)C1=O"
inactive

Answer with reported Activity of "CC(=O)Nc1cccc2[nH]c([C@@]3(Cc4ccccc4)OC(=O)N([C@H](C)c4ccc(F)cc4)C3=O)nc12"
inactive

Answer with reported Activity of "C[C@H](c1ccc(F)cc1)N1C(=O)O[C@](Cc2ccccc2)(c2nc3cc(C#N)ccc3[nH]2)C1=O"
inactive
